Assignment: determine reported inhibition at 5 µM for the given compounds.
Test system: Ehrlich-Ascites-Tumorzellen
assayName: Inhibition of proliferation of Ehrlich ascites tumour cells in vitro
Assay type: cell-based
cond: Konzentration 5 µM, read-out: Hemmung der Proliferation (%) von Ehrlich-Ascites-Tumorzellen in vitro, % Hemmung
The figure you give is taken to be in %; do not add the unit.

q: Value lookup for inhibition at 5 µM; key = CCCCCCCCCCCCCCCCOCC(CCl)OP(=O)(O)OC[C@H](N)C(=O)O (some centres unmarked) [Verbindung Nr. 3]
a: 38

q: What value of inhibition at 5 µM has been recorded for this entry: CCCCCCCCCCCCCCCCOCC(Cl)COP(=O)(O)OC[C@H](N)C(=O)O (some centres unmarked) [Verbindung Nr. 1]
a: 30

q: Requested read-out: inhibition at 5 µM. Entry: CCCCCCCCCCCCCCCCCCOCC(COP(=O)([O-])OCC[N+](C)(C)C)OC (centres unmarked) [V, reference compound]
a: 4

q: What measured inhibition at 5 µM goes with CCCCCCCCCCCCCCCCOC(COCC(F)(F)F)COP(=O)(O)OC[C@H](N)C(=O)O (some centres unmarked) [Verbindung Nr. 4] ?
a: 10

q: Returns the measured inhibition at 5 µM for the input compound. Input: CCCCCCCCCCCCCCCCOCC(F)COP(=O)(O)OC[C@H](N)C(=O)O (some centres unmarked) [Verbindung Nr. 2]
a: 18
